- Target Of Assay: β-Glucuronidase (E. Coli) (EC 3. 2. 1. 31) (Escherichia coli)
- Measurement Description: in vitro
- Condition Parameters: beta-glucuronidase, phosphate buffer, pH 7.4, half-life for the disappearance of 10b, 20-fold enzyme excess (20 units of enzyme per µmol of substrate); 0.05 M potassium phosphate buffer pH 7.4
Where a name gives a salt, the structure may show the parent alone.
Endpoint: half-life at 100 µM (min)

• CCOC(CCCN[C@H]1C[C@H](O[C@H]2C[C@](O)(C(C)=O)Cc3c(O)c4c(c(O)c32)C(=O)c2c(OC)cccc2C4=O)O[C@@H](C)[C@H]1O)O[C@@H]1O[C@H](C(=O)O)[C@@H](O)[C@H](O)[C@H]1O (stereo partly shown) [Compound 10b, (Sodium salt)] = 120

* * *

- Target Of Assay: β-Glucuronidase (E. Coli) (EC 3. 2. 1. 31) (Escherichia coli, UniProt P05804)
- Sequence (P05804 whole entry): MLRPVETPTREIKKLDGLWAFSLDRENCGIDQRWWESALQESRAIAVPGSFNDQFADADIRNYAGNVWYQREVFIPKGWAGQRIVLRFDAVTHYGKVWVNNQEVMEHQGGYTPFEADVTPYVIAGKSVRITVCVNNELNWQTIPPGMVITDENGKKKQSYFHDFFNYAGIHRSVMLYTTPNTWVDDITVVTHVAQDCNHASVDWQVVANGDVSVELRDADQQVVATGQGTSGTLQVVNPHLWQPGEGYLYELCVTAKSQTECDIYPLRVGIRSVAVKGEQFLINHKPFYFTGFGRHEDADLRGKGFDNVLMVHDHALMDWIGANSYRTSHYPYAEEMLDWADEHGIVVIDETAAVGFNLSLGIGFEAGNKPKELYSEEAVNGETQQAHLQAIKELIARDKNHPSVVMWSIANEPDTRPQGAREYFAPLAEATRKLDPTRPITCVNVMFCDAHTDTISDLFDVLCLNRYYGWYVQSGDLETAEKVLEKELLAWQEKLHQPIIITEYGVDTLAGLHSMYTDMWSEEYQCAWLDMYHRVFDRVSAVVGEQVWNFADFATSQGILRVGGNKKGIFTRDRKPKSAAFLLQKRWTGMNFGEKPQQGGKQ
- Measurement Description: in vitro
- Condition Parameters: beta-glucuronidase, phosphate buffer, pH 7.4, half-life for the disappearance of 10b, 10-fold enzyme excess (10 units of enzyme per µmol of substrate); 0.05 M potassium phosphate buffer pH 7.4
Structures can show the parent of a compound that is named as a salt.
Endpoint: half-life at 100 µM (h)

- CCOC(CCCN[C@H]1C[C@H](O[C@H]2C[C@](O)(C(C)=O)Cc3c(O)c4c(c(O)c32)C(=O)c2c(OC)cccc2C4=O)O[C@@H](C)[C@H]1O)O[C@@H]1O[C@H](C(=O)O)[C@@H](O)[C@H](O)[C@H]1O (stereo partly shown) [Compound 10b, (Sodium salt)]: 6.9
